These data points were gathered from paper PMC2642989.

# systemUnderTest: T1, AfPiwi (UniProt O28951 1-427)
# T1 sequence: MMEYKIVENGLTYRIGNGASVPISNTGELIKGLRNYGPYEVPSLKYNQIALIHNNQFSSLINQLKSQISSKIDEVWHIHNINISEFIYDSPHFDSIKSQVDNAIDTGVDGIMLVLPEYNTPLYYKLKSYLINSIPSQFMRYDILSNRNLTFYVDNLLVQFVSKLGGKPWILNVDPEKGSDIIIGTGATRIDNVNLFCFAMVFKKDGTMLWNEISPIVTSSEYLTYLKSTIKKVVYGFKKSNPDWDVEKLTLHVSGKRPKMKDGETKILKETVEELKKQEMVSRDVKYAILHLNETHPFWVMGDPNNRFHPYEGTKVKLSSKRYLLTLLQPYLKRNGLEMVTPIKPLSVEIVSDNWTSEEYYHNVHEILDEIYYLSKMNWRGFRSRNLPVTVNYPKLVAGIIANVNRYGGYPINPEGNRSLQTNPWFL
# assayExplanation: ITC; target into AfPiwi-guide; 10 mM Mg2+; isolation 3.6 nM; ITC: 50 mM Tris pH 7.5, 150 mM KCl, 5% glycerol, 10 mM MgCl2, 1 mM DTT, 20 C; guide 3.5-24 uM in cell with 3-4 fold excess AfPiwi, target in syringe
# experimentalConditions: protein: recombinant; 11 bp, guide 3' overhang 1 nt
assayMetric: Kd (nM)

# binder, assayMetric, unit, reported
measured = [
    ("G12 guide / T11 target (dsDNA, guide (G12) 5' phosphate) DNA 1: TGTAGGTTGCAT DNA 2: TGCAACCTACA", "Kd", "nM", 8.4),
]
